The measured values listed here are drawn from ChEMBL document CHEMBL5346965.

target: microRNA 21; test: Inhibition of pre-miR-21 (unknown origin) dicer cleavage activity preincubated for 30 mins followed by MCF7 cell lysates addition and measured after 30 to 60 mins by FRET method; assay type: functional, subcellular
pIC50: −log10 of the molar value.
Param threshold (4) applies to pIC50; output true when value >= threshold, false when value < threshold.

> print(dat)
                              smiles.record    cat
1  CN(C)c1ccc(/N=N/c2ccc(S(=O)(=O)NCCc3nc(-c4nc(C(=O)NCCCNCCCCN)cs4)cs3)cc2)cc1   true
2  NCCCCNCCCNC(=O)c1csc(-c2csc(CCNCc3ccccc3)n2)n1  false
3  NCCCCNCCCNC(=O)c1csc(-c2csc(CCNCc3ccc4scnc4c3)n2)n1   true
4  NCCCCNCCCNC(=O)c1csc(-c2csc(CCNS(=O)(=O)c3cc4ccccc4s3)n2)n1   true

As a next step, examine the compound that follows.
Data request: Is it the case that NCCCCNCCCNC(=O)c1csc(-c2csc(CCNCc3ccc4[nH]cnc4c3)n2)n1 has pIC50 reaching or exceeding 4?
Data returned: true
